Record form. Attribute: kon. Fill in for each entry.
- measured_target: cynomolgus monkey heterodimeric single-chain CD3εγ extracellular domain (cynomolgus monkey, UniProt Q95LI5 22-117; Q95LI7 23-113)
- Sequence (Q95LI7 other isoform, or with tags, fused parts or gaps): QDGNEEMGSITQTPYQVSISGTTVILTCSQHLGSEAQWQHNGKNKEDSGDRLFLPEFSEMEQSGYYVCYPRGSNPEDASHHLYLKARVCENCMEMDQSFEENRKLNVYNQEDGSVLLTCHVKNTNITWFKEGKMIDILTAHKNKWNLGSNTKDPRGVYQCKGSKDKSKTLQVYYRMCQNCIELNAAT
- assay_method_text: SPR, rabbit IgG captured, cyno single-chain CD3εγ ECD injected
Just the number please, in M⁻¹ s⁻¹, no unit attached.

Given clone-12 (antibody, V domains shown, Recombinant rabbit IgG) VH: QSLEESGGRLVTPGTPLTLTCTVSGFPLSRYAMLWVRQAPGKGLEWIGLITRADNKYYASWAKGRFTISKTSTTVDLEITSPTTEDTATYFCARRHYNTDGYPIAIGDLWGPGTLVTVSS VL: AQVLTQTPSSVSATVGGTVTISCQSNENIYSNNRLSWFQQKPGQPPKLLIYSASSLASGVPSRFKGSGSGTQFTLTISDLECDDAATYYCQGEFNCNSADCFTFGGGTEVVVKG , respond with its kon.
142000

Could you please provide reported kon for clone-06 (antibody, V domains shown, Recombinant rabbit IgG; also called Clone 6) VH: QSVEESGGRLVTPGTPLTLTCTVSGFPLSSYAMIWVRQAPGKGLEWIGMILRAGNIYYASWVKGRVTISKTSTTVDLKITSPTTEDTATYFCARRHYNREGYPIGIGDLWGPGTLVTVSS VL: AQVLTQTPSSVSAAVGGTVTISCQSSESVYNNKRLSWFQQKPGQPPKQLIYTASSLASGVPSRFKGSGSGTQFTLTISDLECDDAATYYCQGEFTCSNADCFTFGGGTEVVVKG ? Thanks!
444000

Please give the documented kon of clone-01 (antibody, V domains shown, Recombinant rabbit IgG; also called purified monoclonal rabbit anti-CD3ε antibody clone-01) VH: QSVEESGGRLVTPGTPLTLTCTVSGFPLSSYAMIWVRQAPGKGLEWIGMILRAGNIYYASWAKGRFTISKTSTTVDLKITSPTTEDTATYFCARRQYNTDGYPIGIGDLWGPGTLVTVSS VL: AQVLTQTASSVSAAVGGTVTISCQSSESVYNNNRLSWFQQKPGQPPKQLIYSASSLASGVPSRFKGSGSGTQFTLTISDLECDDAATYYCQGEFSCSSADCFTFGGGTEVVVKG
386000
